Measured values drawn from patent US20170227547A1 for this set.

Parameter FcRn column retention time: see the listing below.
Target: human neonatal Fc receptor (FcRn), non-covalent complex with beta-2-microglobulin (human) (UniProt P55899)
Sequence (P55899 other isoform, or with tags, fused parts or gaps limits assumed, chain 1 of 2): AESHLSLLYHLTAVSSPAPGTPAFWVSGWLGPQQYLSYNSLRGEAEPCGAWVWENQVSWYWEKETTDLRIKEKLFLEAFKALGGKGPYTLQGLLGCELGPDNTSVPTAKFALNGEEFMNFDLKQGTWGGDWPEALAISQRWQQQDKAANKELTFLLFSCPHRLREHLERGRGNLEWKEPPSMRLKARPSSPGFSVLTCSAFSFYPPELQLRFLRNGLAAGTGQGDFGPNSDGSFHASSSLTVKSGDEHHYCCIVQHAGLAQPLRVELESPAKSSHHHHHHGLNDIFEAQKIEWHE
Sequence (b2m, as listed by the source limits assumed, chain 2 of 2): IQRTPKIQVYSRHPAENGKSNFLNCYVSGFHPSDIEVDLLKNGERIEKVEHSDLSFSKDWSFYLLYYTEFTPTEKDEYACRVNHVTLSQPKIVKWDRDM
Experiment: FcRn affinity column (Example 2)

binder	unit_label	FcRn column retention time
mAb 8 (antibody, IgG1, V domains shown, Briakinumab variant (IgG1) with five positively charged heavy chain residues mutated; also called Briakinumab with HC mutations R16A, R19A, K57A, K64A, R83A) VH: QVQLVESGGGVVQPGASLALSCAASGFTFSSYGMHWVRQAPGKGLEWVAFIRYDGSNAYYADSVAGRFTISRDNSKNTLYLQMNSLAAEDTAVYYCKTHGSHDNWGQGTMVTVSS VL: QSVLTQPPSVSGAPGQRVTISCSGSRSNIGSNTVKWYQQLPGTAPKLLIYYNDQRPSGVPDRFSGSKSGTSASLAITGLQAEDEADYYCQSYDRYTHPALLFGTGTKVTVL	min	90.1
mAb 9 (antibody, IgG1, V domains shown, Briakinumab variant (IgG1) with three positively charged residues of the light chain CDRs mutated to alanine; also called Briakinumab with LC mutations R27A, R55A, R94A) VH: QVQLVESGGGVVQPGRSLRLSCAASGFTFSSYGMHWVRQAPGKGLEWVAFIRYDGSNKYYADSVKGRFTISRDNSKNTLYLQMNSLRAEDTAVYYCKTHGSHDNWGQGTMVTVSS VL: QSVLTQPPSVSGAPGQRVTISCSGSASNIGSNTVKWYQQLPGTAPKLLIYYNDQAPSGVPDRFSGSKSGTSASLAITGLQAEDEADYYCQSYDAYTHPALLFGTGTKVTVL	min	86.2
Briakinumab (antibody, V domains shown, Fully human IgG1; also called ABT 874; J 695) VH: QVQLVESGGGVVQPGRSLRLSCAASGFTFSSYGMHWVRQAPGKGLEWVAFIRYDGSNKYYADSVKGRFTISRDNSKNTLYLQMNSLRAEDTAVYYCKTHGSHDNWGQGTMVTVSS VL: QSVLTQPPSVSGAPGQRVTISCSGSRSNIGSNTVKWYQQLPGTAPKLLIYYNDQRPSGVPDRFSGSKSGTSASLAITGLQAEDEADYYCQSYDRYTHPALLFGTGTKVTVLG	min	93.7
Ustekinumab (antibody, V domains shown, Fully human IgG1; also called CNTO 1275; Stelara) VH: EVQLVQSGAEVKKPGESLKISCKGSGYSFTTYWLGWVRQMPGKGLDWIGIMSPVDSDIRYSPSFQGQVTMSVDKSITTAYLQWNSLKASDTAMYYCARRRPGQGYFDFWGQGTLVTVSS VL: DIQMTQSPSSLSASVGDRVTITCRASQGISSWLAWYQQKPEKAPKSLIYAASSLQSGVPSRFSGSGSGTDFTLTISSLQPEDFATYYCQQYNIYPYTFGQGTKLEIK	min	84.3
